- test system: Lethal factor (Bacillus anthracis)
- Sequence (P15917 whole entry): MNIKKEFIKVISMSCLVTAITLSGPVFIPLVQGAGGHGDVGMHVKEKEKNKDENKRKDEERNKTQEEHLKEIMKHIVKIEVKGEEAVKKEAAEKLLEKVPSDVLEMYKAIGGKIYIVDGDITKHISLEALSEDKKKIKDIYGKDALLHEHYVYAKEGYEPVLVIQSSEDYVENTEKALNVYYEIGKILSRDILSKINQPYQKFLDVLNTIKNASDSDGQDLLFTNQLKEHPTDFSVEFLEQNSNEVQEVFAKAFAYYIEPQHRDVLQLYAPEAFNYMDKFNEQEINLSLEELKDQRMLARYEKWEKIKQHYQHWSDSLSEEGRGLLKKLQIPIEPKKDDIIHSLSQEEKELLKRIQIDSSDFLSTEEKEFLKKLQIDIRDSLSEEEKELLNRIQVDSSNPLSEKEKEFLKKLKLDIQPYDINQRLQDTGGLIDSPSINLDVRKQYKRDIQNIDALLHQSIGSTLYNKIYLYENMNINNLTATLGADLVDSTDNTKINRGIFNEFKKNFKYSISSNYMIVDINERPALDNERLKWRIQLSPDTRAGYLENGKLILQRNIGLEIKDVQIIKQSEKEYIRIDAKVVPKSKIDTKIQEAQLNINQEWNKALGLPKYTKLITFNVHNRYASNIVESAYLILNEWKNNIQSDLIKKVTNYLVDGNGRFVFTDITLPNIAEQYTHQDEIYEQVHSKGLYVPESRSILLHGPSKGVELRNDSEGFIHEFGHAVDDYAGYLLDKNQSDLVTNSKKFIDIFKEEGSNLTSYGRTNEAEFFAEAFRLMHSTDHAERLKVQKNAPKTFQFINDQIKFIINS
Collected IC50 values appear next to each entry.
endpoint label: IC50

[[record]]
structure = "COc1ccc(S(=O)(=O)Nc2sccc2-c2nc3ccccc3s2)cc1OC"
endpoint_label = "IC50"
recorded_value = "19 µM"

[[record]]
structure = "O=S(=O)(Nc1sccc1-c1nc2ccccc2s1)c1ccc(F)c(Cl)c1"
endpoint_label = "IC50"
recorded_value = "13 µM"

[[record]]
structure = "O=S(=O)(Nc1ccccc1-c1nc2ccccc2s1)c1ccc(-c2ccc(Cl)cc2)cc1"
endpoint_label = "IC50"
recorded_value = "100 µM"

[[record]]
structure = "O=S(=O)(Nc1sccc1-c1nc2ccccc2s1)c1ccc2ncsc2c1"
endpoint_label = "IC50"
recorded_value = "10 µM"

[[record]]
structure = "Cc1csc(NS(=O)(=O)c2ccc(F)cc2)c1-c1nc2ccccc2s1"
endpoint_label = "IC50"
recorded_value = "> 100 µM"

[[record]]
structure = "O=S(=O)(Nc1sccc1-c1nc2ccccc2s1)c1ccc(C(F)(F)F)cc1"
endpoint_label = "IC50"
recorded_value = "11 µM"

[[record]]
structure = "Cc1csc(NS(=O)(=O)c2cccc(C(F)(F)F)c2)c1-c1nc2ccccc2s1"
endpoint_label = "IC50"
recorded_value = "9.4 µM"

[[record]]
structure = "Cc1csc(NS(=O)(=O)c2ccc(OC(F)(F)F)cc2)c1-c1nc2ccccc2s1"
endpoint_label = "IC50"
recorded_value = "18 µM"

[[record]]
structure = "Cc1ccc(S(=O)(=O)Nc2scc(C)c2-c2nc3ccccc3s2)cc1"
endpoint_label = "IC50"
recorded_value = "> 100 µM"

[[record]]
structure = "COc1ccc(-c2ccc(S(=O)(=O)Nc3cccs3)cc2)cc1"
endpoint_label = "IC50"
recorded_value = "> 50 µM"

